# test.summary: A549 NSCLC cell proliferation inhibitors – ATP luminescence, human non-small cell lung line, primary screen (AID 371);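 also: compound exposure lasted 72 h before the ATP read; 0% = untreated cell signal and 100% = no luminescence left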
# applied.conditions: at 10 µM
In all, about 3,300 compounds went through this assay and about 280 (8.5%) were called active.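 The calls were made as follows: active = mean growth inhibition over the two runs of 50% or more; inactive = mean growth inhibition under 50%.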 What follows is part of a selection rich in actives, with near analogues and random picks from the rest.
Field 'call' accepts 1 (yes) (active), 0 (no) (inactive)

Recorded test outcome, item C[C@@]1(CO)[C@H](O)CC[C@@]2(C)[C@H]1CC[C@H]1C[C@@H]3C[C@@]12CC[C@]3(O)CO
1 (yes)

Assay result, entry CCCCNC(=O)Nc1ccc(C(O)(C(=O)OCC)C(F)(F)F)cc1 (stereo unspecified) — outcome?
0 (no)

Status in this test for O=C(Nc1ccncc1)c1c(O)c2ccccc2n(Cc2ccccc2)c1=O ?
1 (yes)

Assay outcome for CCN(CC)CCN=Cc1c(O)n(CCc2ccccc2)c(=O)[nH]c1=O : what was it?
0 (no)

# fetch the recorded call for CC1=NOC2(C)Nc3ncnn3C(c3ccccc3)C12 (stereo unspecified) here
0 (no)

Recorded test call requested for CCN(CC)CCCNC(=O)c1c(O)c2ccccc2n(Cc2ccccc2)c1=O
1 (yes)

What call does the record list for O=C(COc1ccc2ccccc2c1)N1CCN(C2CCN(Cc3ccccc3)CC2)CC1 ?
0 (no)

Dear colleague, could you share the recorded outcome for O=c1[nH]c(O)c(C=NC2CCN(Cc3ccccc3)CC2)c(=O)[nH]1 when you have a moment?
0 (no)

Assay outcome for OC(Cc1ccccc1)(c1ccccc1)C1CN2CCC1CC2 (stereo unspecified) : what was it?
0 (no)

Assay outcome for CCCCSP1(=S)NCCCN1 : what was it?
0 (no)

Test call for this molecule, please: Cc1c2ccncc2c(C)c2c1[nH]c1ccccc12
1 (yes)

* * *

# test.summary: A549 NSCLC cell proliferation inhibitors – ATP luminescence, human non-small cell lung line, primary screen (AID 371);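 also: compound exposure lasted 72 h before the ATP read; 0% = untreated cell signal and 100% = no luminescence left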
# applied.conditions: at 10 µM, stronger effect = higher value
In all, about 3,300 compounds went through this assay and about 280 (8.5%) were called active. This is one part of a sample in which actives are shown more often than they occur.
Can you tell me growth inhibition for the items I'm about to list?
Report only the number, with the unit % understood.

The value of growth inhibition measured for the compound CC(=NCCO)c1c(O)n(C)c(=O)n(C)c1=O turned out to be -4.52

The measured growth inhibition associated with CC1CCC(C(C)C)C(OP(N)(=O)c2ccccc2)C1 (stereo not given) reads 16.9

Kindly note the recorded growth inhibition for CC(C)[C@@]1(NC(=O)[C@@H]2C[C@@H]3c4cccc5[nH]cc(c45)C[C@H]3N(C)C2)O[C@@]2(O)[C@@H]3CCCN3C(=O)[C@H](Cc3ccccc3)N2C1=O , which is 85.1

Input CC(=O)C1(c2ccccc2)CCNCC1 . Output growth inhibition: 2.01

For reference, reported growth inhibition for CN1CCc2nc(SCC(=O)OC(C)(C)C)c(C#N)cc2C1 stands at 25.1

Data point: O=C(CCCN1CCC2(CC1)C(=O)NCN2c1ccccc1)c1ccc(F)cc1 ; growth inhibition = 54.1

Query O=c1[nH]c2ccccc2n1C1CCN(CCCC(c2ccc(F)cc2)c2ccc(F)cc2)CC1 yields growth inhibition of 93

CCCCOCCCn1c(N)c(C(=O)OC(C)COC)c2nc3ccccc3nc21 (stereo not given) yielded growth inhibition of 36.6

Measured growth inhibition, O=c1[nH]c(=O)n(-c2cccc(Cl)c2)c(O)c1C=NCCN1CCCCC1 : 4.68

// field: growth inhibition; key: Cc1c(N=Cc2c(O)n(CCc3ccc(F)cc3)c(=O)[nH]c2=O)c(=O)n(-c2ccccc2)n1C ; value = 12.3

Note to self: growth inhibition recorded for CCN(CC)CCN=C(C)c1c(O)n(-c2ccccc2OC)c(=O)[nH]c1=O was -2.11

Looking up CCOc1ccc(Cc2c(O)[nH]c(=O)[nH]c2=O)cc1 , I see its growth inhibition listed as -5.3

// growth inhibition value for Clc1ccc(COC(Cn2ccnc2)c2ccc(Cl)cc2Cl)cc1 (stereo not given) : 91.6

Measured growth inhibition, O=c1[nH]c(=O)n(CCc2ccccc2)c(O)c1C=NCCN1CCNCC1 : -7.13

Per the record, CC1(C)NCCN2C(=O)CSC21 (stereo not given) has growth inhibition of -1.76

Measured growth inhibition of C=CCn1c(O)c(C=Nc2ccc(N(CC)CC)cc2)c(=O)[nH]c1=O : 4.7

The compound COCCOC(=O)C1=C(N)Oc2c(c(=O)oc3ccccc23)[C@@]12C(=O)Nc1ccccc12 showed growth inhibition equal to -4.66

// recorded growth inhibition for CC(C)(C)OC(=O)c1c(N)n(Cc2ccco2)c2nc3ccccc3nc12 : 56.9

For record CC(C)OC(=O)c1c(N)n(Cc2ccco2)c2nc3ccccc3nc12 the listed growth inhibition is 18.6

Measured growth inhibition of C=CCn1c(O)c(C=NCCN(C)C)c(=O)[nH]c1=O : 2.68

// field: growth inhibition; key: CNCCc1nc(N)n[nH]1 ; value = 1.61

# growth inhibition of O=C1C2CCN(CC2)[C@@H]1Cc1ccc2ccccc2c1O = 7.73

// growth inhibition value for CCOc1ccccc1-n1c(O)c(C=Nc2c(C)n(C)n(-c3ccccc3)c2=O)c(=O)[nH]c1=O : 0.12

Note to self: growth inhibition recorded for O=c1[nH]c(=O)n(Cc2ccco2)c(O)c1C=NCCN1CCOCC1 was 0.93

What the record says about CCC(=NCCOc1ccc(Cl)cc1)c1c(O)n(C)c(=O)n(C)c1=O : growth inhibition is 55.2

// recorded growth inhibition for CCCc1nc2ccccc2c(=O)n1-c1ccccc1OC : -0.02

Lab note: Cc1c(N=Cc2c(O)n(CCc3ccccc3)c(=O)[nH]c2=O)c(=O)n(-c2ccccc2)n1C gave growth inhibition of 79.2

Form: compound = CN(C)CCOC(=O)c1cn(Cc2ccccc2)c2ccccc12 ; growth inhibition = 61.2

growth inhibition recorded for this compound, Cn1c(O)c(C(=O)c2ccccc2Cl)c(=O)n(C)c1=O , is 2.11

growth inhibition measured on CCN(CC)c1ccc(N=Cc2c(O)n(-c3cc(OC)ccc3OC)c(=O)[nH]c2=O)cc1 = 26.8

Note to self: growth inhibition recorded for C[C@H]1CCC/C=C/C2C[C@H](O)CC2[C@H](O)/C=C/C(=O)O1 (stereo not given in full) was 76

Entry CCCCSP1(=S)NCCCO1 (stereo not given) ; growth inhibition = 19.6

Sure, the documented growth inhibition for C[C@H]1CCCC(=O)CCCCCc2cc(O)cc(O)c2C(=O)O1 is 52.1

According to the records, this compound CC(C)[C@@]1(NC(=O)[C@@H]2C=C3c4cccc5[nH]cc(c45)C[C@H]3N(C)C2)O[C@@]2(O)[C@@H]3CCCN3C(=O)[C@H](Cc3ccccc3)N2C1=O displays growth inhibition of 35.2

growth inhibition measured on CCCC12CN3CN(C1)CC(CCC)(C3)C2O (stereo not given) = -0.83

Provenance of the data: PubChem BioAssay AID371
